These entries and their values trace back to the Immune Epitope Database (IEDB).

target: HLA-A*02:06; test: IEDB peptide-MHC binding, purified MHC/competitive/radioactivity; filed as Kd, often an IC50 or EC50 that approximates it; bounds were set here for any values at or beyond the usual limits of such assays; conditions: source organism: Dengue virus 2 Jamaica/1409/1983
We begin with a simple list: items and their reported pKd.
Interpret pKd as the negative base-10 log of the concentration measured in mol/L.

Below are worked cases with known answers.
LLLTLLATV; 9.00
IILEFFLIVL; 6.49
NQATVLMGL; 7.97

Then there is this sequence:
In: Please report the recorded pKd for VVIAILTVV .
Out: 7.87

###

target: HLA-B*46:01; assay: IEDB peptide-MHC binding, purified MHC/direct/fluorescence; filed as Kd, often an IC50 or EC50 that approximates it; bounds were set here for any values at or beyond the usual limits of such assays; conditions: source organism: Vibrio parahaemolyticus
observable: Kd (µM)
Enter your answer as a number in µM; do not include the unit.

In: Reported Kd, sequence LVAPHMAMM : ____
Out: 11
